Target: FGFR1 (Homo sapiens (Human), UniProt P11362)
Sequence (P11362 22-822): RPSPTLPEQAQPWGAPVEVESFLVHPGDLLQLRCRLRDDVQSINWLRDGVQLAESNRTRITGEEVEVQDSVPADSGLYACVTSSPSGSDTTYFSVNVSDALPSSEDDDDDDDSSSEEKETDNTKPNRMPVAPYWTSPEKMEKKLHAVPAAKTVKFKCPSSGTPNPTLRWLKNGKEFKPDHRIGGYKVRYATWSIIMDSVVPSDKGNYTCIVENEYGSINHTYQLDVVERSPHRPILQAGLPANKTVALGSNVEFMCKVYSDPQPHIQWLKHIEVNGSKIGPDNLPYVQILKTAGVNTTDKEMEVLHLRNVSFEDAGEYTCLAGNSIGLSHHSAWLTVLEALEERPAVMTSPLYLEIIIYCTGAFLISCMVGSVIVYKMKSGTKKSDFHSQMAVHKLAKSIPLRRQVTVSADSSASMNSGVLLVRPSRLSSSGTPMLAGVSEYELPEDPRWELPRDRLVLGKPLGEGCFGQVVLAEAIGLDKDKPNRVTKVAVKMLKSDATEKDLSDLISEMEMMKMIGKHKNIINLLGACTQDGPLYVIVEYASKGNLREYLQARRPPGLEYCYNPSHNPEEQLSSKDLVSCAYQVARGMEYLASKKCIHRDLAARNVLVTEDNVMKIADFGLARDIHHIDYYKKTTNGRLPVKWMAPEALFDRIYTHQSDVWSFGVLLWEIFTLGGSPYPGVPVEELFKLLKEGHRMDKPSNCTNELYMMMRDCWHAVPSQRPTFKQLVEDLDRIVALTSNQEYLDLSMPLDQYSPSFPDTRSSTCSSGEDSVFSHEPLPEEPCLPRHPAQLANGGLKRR
Assay: FGFR biochemical assay (LanthaScreen TR-FRET kinase assay), FGFR1
Settings: read-out: FGFR1 IC50; * incubation at room temperature for 60 minutes before addition of substrate solution; ATP 28 μM; FGFR1 0.01 nM
pIC50: −log10 of the molar value.
ENDPOINT LABEL: pIC50

Study these solved cases before continuing.
SMILES TEXT	pIC50
C=C(F)C(=O)Nc1ccc(-c2c(-c3ccc(Oc4nccc(C)n4)c(F)c3)c(C(N)=O)c3cncnn23)cc1	< 6.00
C=C(F)C(=O)Nc1ccc(-c2c(-c3ccc(Oc4nc(C)cc(C)n4)c(F)c3)c(C(N)=O)c3cnc(C)cn23)cc1	< 6.00
C=C(F)C(=O)N1CC2(CC2)c2cc(-c3c(-c4ccc(Oc5nccc(C)n5)c(F)c4)c(C(N)=O)c4cnc(C)cn34)c(F)cc21	> 8.00
C=C(F)C(=O)N1CCc2cc(-c3c(-c4ccc(Oc5nccc(C)n5)c(F)c4)c(C(N)=O)c4ccc(C)nn34)ccc21	< 6.00

Now let's try a different one.
The value of pIC50 recorded for `C=C(F)C(=O)N1CCCc2cc(-c3c(-c4ccc(Oc5nccc(C)n5)c(F)c4)c(C(N)=O)c4cnc(C)cn34)c(F)cc21` when tested on FGFR1 (Homo sapiens (Human), UniProt P11362) reads < 6.00

---

Target: FGFR3 (Homo sapiens (Human))
Sequence (P22607 23-806): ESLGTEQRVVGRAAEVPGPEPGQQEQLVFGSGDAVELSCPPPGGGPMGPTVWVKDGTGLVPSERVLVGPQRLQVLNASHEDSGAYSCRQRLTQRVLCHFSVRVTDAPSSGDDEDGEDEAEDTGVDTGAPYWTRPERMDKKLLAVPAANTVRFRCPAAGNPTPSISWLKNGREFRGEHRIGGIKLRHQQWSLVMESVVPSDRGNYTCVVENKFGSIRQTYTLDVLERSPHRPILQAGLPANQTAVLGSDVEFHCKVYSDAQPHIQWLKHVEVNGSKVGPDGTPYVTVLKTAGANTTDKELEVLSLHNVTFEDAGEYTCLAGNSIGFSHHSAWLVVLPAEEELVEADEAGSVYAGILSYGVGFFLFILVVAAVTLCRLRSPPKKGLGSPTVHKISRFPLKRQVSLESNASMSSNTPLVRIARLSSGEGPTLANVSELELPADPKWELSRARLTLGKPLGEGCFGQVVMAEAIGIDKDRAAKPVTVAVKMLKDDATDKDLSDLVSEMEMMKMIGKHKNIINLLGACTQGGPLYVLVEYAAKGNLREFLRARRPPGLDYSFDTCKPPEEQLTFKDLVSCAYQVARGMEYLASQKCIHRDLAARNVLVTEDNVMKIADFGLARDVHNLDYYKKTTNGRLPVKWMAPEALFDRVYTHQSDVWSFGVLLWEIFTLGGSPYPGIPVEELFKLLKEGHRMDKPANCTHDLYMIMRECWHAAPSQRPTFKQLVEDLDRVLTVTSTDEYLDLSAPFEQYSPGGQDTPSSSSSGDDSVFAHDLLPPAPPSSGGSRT
Assay: FGFR biochemical assay (LanthaScreen TR-FRET kinase assay), FGFR3
In this section, each of the molecules is paired with its reported IC50.

Study these solved cases before continuing.
MOLECULE	SUBJECT OF TEST	IC50
C=C(F)C(=O)Nc1ccc(-c2c(-c3ccc(Oc4nccc(C)n4)c(F)c3)c(C(N)=O)c3cc(-c4cnn(C)c4)ncn23)cc1 [Example 86]	FGFR3 (Homo sapiens (Human))	10 to 100 nM
C=CC(=O)Nc1ccc(-c2c(-c3ccc(Oc4cccc(C)n4)cc3)c(C(N)=O)c3cnc(CO)cn23)cc1 [Example 11]	FGFR3 (Homo sapiens (Human))	10 to 100 nM
C=CC(=O)Nc1ccc(-c2c(-c3ccc(C(=O)N4CC5(CCC5)C4)cc3)c(C(N)=O)c3cnccn23)cc1 [Example 30]	FGFR3 (Homo sapiens (Human))	100 to 1000 nM
C=C(F)C(=O)Nc1ccc(-c2c(-c3ccc(Oc4nccc(C)n4)c(F)c3)c(C(N)=O)c3cc(C)cnn23)cc1 [Example 87]	FGFR3 (Homo sapiens (Human))	10 to 100 nM
C=CC(=O)N1CC=C(c2c(-c3ccc(Oc4nccc(C)n4)c(F)c3)c(C(N)=O)c3cnc(C)cn23)CC1 [Example 101]	FGFR3 (Homo sapiens (Human))	10 to 100 nM
C=C(F)C(=O)Nc1ccc(-c2c(-c3ccc(Oc4nccc(C)n4)c(F)c3)c(C(N)=O)c3cnc(C)cn23)cn1 [Example 51]	FGFR3 (Homo sapiens (Human))	10 to 100 nM
C=CC(=O)Nc1ccc(-c2c(-c3ccc(S(=O)(=O)C4CC4)cc3)c(C(N)=O)c3cnccn23)cc1 [Example 27]	FGFR3 (Homo sapiens (Human))	100 to 1000 nM
C=CC(=O)Nc1ccc(-c2c(-c3ccc(Oc4nccc(C)n4)c(F)c3)c(C(N)=O)c3cnccn23)cc1 [Example 33]	FGFR3 (Homo sapiens (Human))	10 to 100 nM
CC#CC(=O)Nc1ccc(-c2c(-c3ccc(C(=O)NCC4(F)COC4)cc3)c(C(N)=O)c3cnc(C)cn23)cc1 [Example 65]	FGFR3 (Homo sapiens (Human))	100 to 1000 nM
C=CC(=O)Nc1ccc(-c2c(-c3ccc(Oc4cccc(C)n4)cc3)c(C(N)=O)c3cnc(C#N)cn23)cc1 [Example 77]	FGFR3 (Homo sapiens (Human))	100 to 1000 nM

The value of IC50 recorded for C=C(F)C(=O)Nc1ccc(-c2c(-c3ccc(Oc4nccc(C)n4)cc3)c(C(N)=O)c3cnc(NC(C)=O)cn23)cc1 [Example 83] when tested on FGFR3 (Homo sapiens (Human)) reads 10 to 100 nM

The value of IC50 recorded for C=C(F)C(=O)Nc1ccc(-c2c(-c3ccc(Oc4nccc(C)n4)c(F)c3)c(C(N)=O)c3ccccn23)cc1 [Example 107] when tested on FGFR3 (Homo sapiens (Human)) reads 10 to 100 nM
